Attribute: inhibition at 3 µM
- measurement target: hSCN3A sodium channels (Homo sapiens)
- Construct: expressed in transfected cells
- protocol description: hSCN3A electrophysiology, Ionworks Quattro automated platform (Table C)
- Assay type: cell-based
- condition set: 3 μM compound, read-out: SCN3A % INHIB HTS IWQ 3 μM
- Procedure: Human Embryonic Kidney (HEK) cells were transfected with an hSCN3A construct using lipofectamine reagent (Invitrogen), using standard techniques. […] Clones were screened for expression using the whole-cell voltage-clamp technique. HEK cells stably transfected with hSCN3A were maintained in DMEM medium supplemented with 10% heat-inactivated fetal bovine serum and 400 μg/ml G418 sulfate in an incubator at 37° C. with a humidified atmosphere of 10% CO2. […]

molecule: CCN(C(=O)c1ccc(S(=O)(=O)Nc2nccs2)cc1)C(C)C(=O)c1ccccc1 (stereo not drawn) [Example 209]
units symbol: %
inhibition at 3 µM: 5.72

molecule: O=C(NCc1cccc(OC(F)(F)F)c1)c1ccc(S(=O)(=O)Nc2nccs2)c(Cl)c1 [Example 285]
units symbol: %
inhibition at 3 µM: 15.1

molecule: COc1ccc(CC2(NC(=O)c3ccc(S(=O)(=O)Nc4nccs4)cc3)CC2)cc1 [Example 162]
units symbol: %
inhibition at 3 µM: 28

---

- measurement target: hSCN3A sodium channels (Homo sapiens, UniProt Q9NY46)
- Construct: expressed in transfected cells
- Sequence (Q9NY46 whole entry): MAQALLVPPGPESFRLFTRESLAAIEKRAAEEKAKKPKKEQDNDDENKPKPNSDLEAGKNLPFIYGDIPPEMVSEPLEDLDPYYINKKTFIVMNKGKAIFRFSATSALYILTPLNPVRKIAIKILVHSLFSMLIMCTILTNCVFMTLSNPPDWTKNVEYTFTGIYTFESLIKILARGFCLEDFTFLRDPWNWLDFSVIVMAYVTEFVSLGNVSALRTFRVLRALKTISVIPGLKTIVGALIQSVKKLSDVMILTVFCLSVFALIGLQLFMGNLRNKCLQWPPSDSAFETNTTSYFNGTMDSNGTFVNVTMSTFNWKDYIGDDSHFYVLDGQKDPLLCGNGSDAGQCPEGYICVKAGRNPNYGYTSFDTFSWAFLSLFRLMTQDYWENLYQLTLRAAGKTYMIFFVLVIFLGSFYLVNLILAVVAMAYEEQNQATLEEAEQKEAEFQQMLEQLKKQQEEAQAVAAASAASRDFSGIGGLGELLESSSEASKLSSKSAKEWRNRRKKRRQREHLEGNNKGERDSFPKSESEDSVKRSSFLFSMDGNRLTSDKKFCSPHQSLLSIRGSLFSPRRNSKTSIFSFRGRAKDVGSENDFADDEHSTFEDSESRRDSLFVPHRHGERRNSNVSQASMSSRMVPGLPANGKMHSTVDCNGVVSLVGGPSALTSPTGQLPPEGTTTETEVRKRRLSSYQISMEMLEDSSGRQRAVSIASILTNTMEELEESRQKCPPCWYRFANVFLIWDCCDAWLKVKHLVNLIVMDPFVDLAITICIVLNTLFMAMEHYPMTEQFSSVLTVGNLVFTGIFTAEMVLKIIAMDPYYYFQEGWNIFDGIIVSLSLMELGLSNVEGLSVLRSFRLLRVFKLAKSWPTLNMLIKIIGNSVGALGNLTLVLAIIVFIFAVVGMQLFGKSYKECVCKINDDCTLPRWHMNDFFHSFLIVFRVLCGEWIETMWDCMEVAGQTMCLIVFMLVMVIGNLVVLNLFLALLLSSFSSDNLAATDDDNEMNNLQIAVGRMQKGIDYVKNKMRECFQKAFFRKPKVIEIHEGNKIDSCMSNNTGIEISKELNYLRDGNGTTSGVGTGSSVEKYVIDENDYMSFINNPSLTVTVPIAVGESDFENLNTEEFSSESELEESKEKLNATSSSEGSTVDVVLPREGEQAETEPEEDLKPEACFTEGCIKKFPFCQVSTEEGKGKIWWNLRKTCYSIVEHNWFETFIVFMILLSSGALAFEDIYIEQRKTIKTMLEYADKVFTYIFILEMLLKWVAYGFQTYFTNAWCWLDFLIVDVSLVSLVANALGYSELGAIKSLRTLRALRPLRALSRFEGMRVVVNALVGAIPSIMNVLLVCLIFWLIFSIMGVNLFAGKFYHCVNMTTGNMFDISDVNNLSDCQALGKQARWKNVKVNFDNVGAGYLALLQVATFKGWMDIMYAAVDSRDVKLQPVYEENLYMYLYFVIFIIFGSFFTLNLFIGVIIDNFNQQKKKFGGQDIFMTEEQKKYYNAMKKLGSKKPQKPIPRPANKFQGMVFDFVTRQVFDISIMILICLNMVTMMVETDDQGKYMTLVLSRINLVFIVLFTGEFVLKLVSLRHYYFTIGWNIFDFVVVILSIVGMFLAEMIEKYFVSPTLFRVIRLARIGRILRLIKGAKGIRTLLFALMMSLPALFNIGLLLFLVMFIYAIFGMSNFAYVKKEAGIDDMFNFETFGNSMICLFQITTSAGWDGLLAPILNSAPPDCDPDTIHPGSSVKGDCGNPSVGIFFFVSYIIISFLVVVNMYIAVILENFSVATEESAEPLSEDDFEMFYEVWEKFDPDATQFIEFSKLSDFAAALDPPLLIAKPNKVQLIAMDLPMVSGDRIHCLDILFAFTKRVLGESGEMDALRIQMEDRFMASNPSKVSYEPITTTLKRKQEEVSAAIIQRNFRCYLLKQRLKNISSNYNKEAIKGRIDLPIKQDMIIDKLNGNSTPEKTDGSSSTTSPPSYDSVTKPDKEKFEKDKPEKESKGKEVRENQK
- protocol description: hSCN3A electrophysiology, Ionworks Quattro automated platform (Table C)
- Type: cell-based
- condition set: 3 μM compound, read-out: SCN3A % INHIB HTS IWQ 3 μM

compound: O=C1[C@@H]2CC[C@@H]3[C@H]1C(c1ccccc1)N(C(=O)c1ccc(S(=O)(=O)Nc4nccs4)cc1)[C@H]3C2 (stereo partly shown)
inhibition at 3 µM, %: 6.18
//
compound: CCN(C(=O)c1ccc(S(=O)(=O)Nc2nccs2)cc1)[C@H](CO)c1ccccc1
inhibition at 3 µM, %: 13.1
//
compound: CCc1ccc(C)nc1NC(=O)c1ccc(S(=O)(=O)Nc2nccs2)cc1
inhibition at 3 µM, %: 2.71
//
compound: O=C(c1ccc(S(=O)(=O)Nc2nccs2)cc1)N1CCCCC1c1ccccn1 (stereo not shown)
inhibition at 3 µM, %: 3.68
//
compound: CC[C@H](NC(=O)c1ccc(S(=O)(=O)Nc2nccs2)cc1)c1ccccc1
inhibition at 3 µM, %: 2.05
//
compound: COc1ccc(CCNC(=O)c2ccc(S(=O)(=O)Nc3nccs3)cc2)cc1
inhibition at 3 µM, %: 35.3
//
compound: O=C(c1ccc(S(=O)(=O)Nc2nccs2)cc1)N(Cc1ccc(F)cc1)C1CC1
inhibition at 3 µM, %: 16.7
//
compound: Cc1cc(C)nc(CC2CCCCCN2C(=O)c2ccc(S(=O)(=O)Nc3nccs3)cc2)c1 (stereo not shown)
inhibition at 3 µM, %: -0.31
//
compound: COc1cccc(C2CCCN2C(=O)c2ccc(S(=O)(=O)Nc3nccs3)cc2)c1 (stereo not shown)
inhibition at 3 µM, %: 4.82
//
compound: C[C@@H](c1ccccc1)N(C)C(=O)c1ccc(S(=O)(=O)Nc2nccs2)cc1
inhibition at 3 µM, %: 1.49
//
compound: O=C(c1ccc(S(=O)(=O)Nc2nccs2)cc1)N1CCCC(COc2ccccc2)C1 (stereo not shown)
inhibition at 3 µM, %: 30.1
//
compound: Cc1ncccc1OCC1CN(C(=O)c2ccc(S(=O)(=O)Nc3nccs3)cc2)CCO1 (stereo not shown)
inhibition at 3 µM, %: 15.3
//
compound: O=C(c1ccc(S(=O)(=O)Nc2nccs2)cc1)N1CCCC1Cc1ccccc1 (stereo not shown)
inhibition at 3 µM, %: 17.6
//
compound: O=C(NCc1c(F)cccc1Cl)c1ccc(S(=O)(=O)Nc2nccs2)cc1
inhibition at 3 µM, %: 22.3
//
compound: COc1ccc(CC2COCCN(C(=O)c3ccc(S(=O)(=O)Nc4nccs4)cc3)C2)cc1F (stereo not shown)
inhibition at 3 µM, %: 10.2
//
compound: O=C(c1ccc(S(=O)(=O)Nc2nccs2)cc1)N1CCSCC1c1ccc(F)cc1 (stereo not shown)
inhibition at 3 µM, %: 36.9
//
compound: Cc1ccnc(NC(=O)c2ccc(S(=O)(=O)Nc3nccs3)cc2)c1
inhibition at 3 µM, %: -12.2
//
compound: CC[C@@H](NC(=O)c1ccc(S(=O)(=O)Nc2nccs2)cc1)c1ccccc1
inhibition at 3 µM, %: -7.12
//
compound: O=C(N[C@@H]1CCC[C@@H]1c1ccccc1)c1ccc(S(=O)(=O)Nc2nccs2)cc1
inhibition at 3 µM, %: 16.2

---

- measurement target: hSCN3A sodium channels (Homo sapiens)
- Construct: expressed in transfected cells
- protocol description: hSCN3A electrophysiology, Ionworks Quattro automated platform (Table C)
- Assay type: cell-based
- condition set: 3 μM compound, read-out: SCN3A % INHIB HTS IWQ 3 μM
recorded metric: inhibition at 3 µM (%)

compound: Cc1ccc(CNC(=O)c2ccc(S(=O)(=O)Nc3nccs3)cc2)cc1 [Example 98]
recorded metric: inhibition at 3 µM
readout number: 28.1
//
compound: O=C(N[C@@H]1COC[C@@H]1c1ccc(F)cc1)c1ccc(S(=O)(=O)Nc2nccs2)cc1 [Example 179]
recorded metric: inhibition at 3 µM
readout number: 9.95
//
compound: COCCCOC1CCCN(C(=O)c2ccc(S(=O)(=O)Nc3nccs3)cc2)C1 (centres unmarked) [Example 260]
recorded metric: inhibition at 3 µM
readout number: -3.05
//
compound: O=C(c1ccc(S(=O)(=O)Nc2nccs2)cc1)N1CCCC(OCc2ccccc2)C1 (centres unmarked) [Example 211]
recorded metric: inhibition at 3 µM
readout number: 2.5
//
compound: O=C(NC1(Cc2cccc(Cl)c2)CC1)c1ccc(S(=O)(=O)Nc2nccs2)cc1 [Example 137]
recorded metric: inhibition at 3 µM
readout number: 21.8
//
compound: CC(CNC(=O)c1ccc(S(=O)(=O)Nc2nccs2)cc1)c1ccccc1 (centres unmarked) [Example 155]
recorded metric: inhibition at 3 µM
readout number: 30.1
//
compound: CC(CNC(=O)c1ccc(S(=O)(=O)Nc2nccs2)cc1)Oc1ccccc1 (centres unmarked) [Example 161]
recorded metric: inhibition at 3 µM
readout number: 30.3
//
compound: O=C(c1ccc(S(=O)(=O)Nc2nccs2)cc1)N1CCOC(COc2cccc(Cl)c2)C1 (centres unmarked) [Example 234]
recorded metric: inhibition at 3 µM
readout number: 32
//
compound: Cc1ccc([C@H](C)NC(=O)c2ccc(S(=O)(=O)Nc3nccs3)cc2)cc1 [Example 79]
recorded metric: inhibition at 3 µM
readout number: 17.7
//
compound: COc1cccc(CC2CCCN2C(=O)c2ccc(S(=O)(=O)Nc3nccs3)cc2)c1 (centres unmarked) [Example 240]
recorded metric: inhibition at 3 µM
readout number: 14.4
//
compound: Cc1cc(CC(NC(=O)c2ccc(S(=O)(=O)Nc3nccs3)cc2)c2ccc(F)cc2)on1 (centres unmarked) [Example 156]
recorded metric: inhibition at 3 µM
readout number: 13.3
//
compound: N#Cc1cccc(OC2CCCN(C(=O)c3ccc(S(=O)(=O)Nc4nccs4)cc3)C2)c1 (centres unmarked) [Example 265]
recorded metric: inhibition at 3 µM
readout number: 22.6
//
compound: O=C(NC(CO)c1ccccc1)c1ccc(S(=O)(=O)Nc2nccs2)cc1 (centres unmarked) [Example 57]
recorded metric: inhibition at 3 µM
readout number: 25.2
//
compound: Cc1cnc(NC(=O)c2ccc(S(=O)(=O)Nc3nccs3)cc2)c(C)c1 [Example 184]
recorded metric: inhibition at 3 µM
readout number: 29
//
compound: COc1cccc(C2(NC(=O)c3ccc(S(=O)(=O)Nc4nccs4)cc3)CC2)c1 [Example 164]
recorded metric: inhibition at 3 µM
readout number: 16.6
//
compound: O=C(c1ccc(S(=O)(=O)Nc2nccs2)cc1)N1CCCCCC1c1ccccc1 (centres unmarked) [Example 268]
recorded metric: inhibition at 3 µM
readout number: 11
//
compound: O=C(NC1(c2cccc(Cl)c2)CC1)c1ccc(S(=O)(=O)Nc2nccs2)cc1 [Example 135]
recorded metric: inhibition at 3 µM
readout number: 27.4
//
compound: O=C(N[C@H]1CCC[C@@H]1c1ccccc1)c1ccc(S(=O)(=O)Nc2nccs2)cc1 [Example 131]
recorded metric: inhibition at 3 µM
readout number: 27.2
//
compound: O=C(NCCc1ccccc1F)c1ccc(S(=O)(=O)Nc2nccs2)cc1 [Example 77]
recorded metric: inhibition at 3 µM
readout number: 16.6
//
compound: O=C(NCC1(c2ccccc2)CC1)c1ccc(S(=O)(=O)Nc2nccs2)cc1 [Example 153]
recorded metric: inhibition at 3 µM
readout number: 15.9
//
compound: Cc1cccc(C2(C)CN(C(=O)c3ccc(S(=O)(=O)Nc4nccs4)cc3)CCO2)c1 (centres unmarked) [Example 189]
recorded metric: inhibition at 3 µM
readout number: 25.3
//
compound: O=C(NCc1cccc(C(F)(F)F)c1)c1ccc(S(=O)(=O)Nc2nccs2)c(Cl)c1 [Example 288]
recorded metric: inhibition at 3 µM
readout number: 4.38
//
compound: Cc1cccc(CC2COCCN(C(=O)c3ccc(S(=O)(=O)Nc4nccs4)cc3)C2)n1 (centres unmarked) [Example 225]
recorded metric: inhibition at 3 µM
readout number: 6.08
